Tested on: A549/ATCC NSCLC
Assay Comment: NCI-60 one-dose screen, 48 h (100 = growth as untreated, 0 = no growth, -100 = all killed)
Measurement Setup: 10 µM unless noted
Compounds without any hit were thinned out: in the full panel of roughly 83,000, 20% have a hit.
# growth values compiled below
Please give a number only; it is taken to be in %.

Below, each entry is followed by its recorded growth result.
Molecule | Assay Target | Unit Tag | growth
N#Cc1cnc2ccc(-c3cnc4n[nH]nc4c3)cc2c1N1CCc2cc(F)c(Cl)cc21 | A549/ATCC NSCLC | % | 11.2
CNC(=O)Nc1ccc(Nc2cc(-c3ccc(-n4cccn4)cc3)[nH]n2)c(C)c1 | A549/ATCC NSCLC | % | 102
N#Cc1c(-c2ccc(F)cc2)cc(-c2c[nH]c3ccccc23)nc1-c1c[nH]c2ccccc12 | A549/ATCC NSCLC | % | 101
O=C1/C(=C/c2cc(F)cc(F)c2)Cc2cc3c(cc21)OCO3 | A549/ATCC NSCLC | % | 59.8
CCOC(=O)c1ccccc1NC1=C(Cl)C(=O)c2nc(C)ccc2C1=O | A549/ATCC NSCLC | % | 107
N#Cc1c(-c2cccs2)c(C#N)c(=O)n(Cc2nc3ccccc3[nH]2)c1N | A549/ATCC NSCLC | % | 103
COc1ccc(C(C)=C(c2ccc(OCCN3CCCCCC3)cc2)c2ccc(OCCN3CCCCCC3)cc2)cc1 | A549/ATCC NSCLC | % | -35.9
CCCCc1nc2c(N)nc3ccccc3c2n1Cc1ccc(OC)cc1 | A549/ATCC NSCLC | % | 65.8
CN1CCN(c2ccc(Nc3nc(NCCNS(=O)(=O)c4ccc(Cl)cc4)c4sccc4n3)cc2)CC1 | A549/ATCC NSCLC | % | 92.7
CCOC(=O)c1c(NC(=O)c2cccc(C(F)(F)F)c2)sc2c3c(ccc12)OCN(C)C3 | A549/ATCC NSCLC | % | -77.7

Specify growth for O=C1c2ccccc2C23C(=C(c4cncnc4)c4ccccc42)CCCN13 (stereo not given) and stop.
98.9

Indicate its recorded growth; the molecule in question is Cc1ccc(Nc2nc(SC(C)C)nc(-c3ccccc3)c2C#N)cc1
96.2

Kindly indicate its recorded growth. Item: CC(C)(C)OC(=O)Nc1ccc(-c2cccc(Oc3ccc4nnc(Cl)n4n3)c2)cc1
85.6

Return reported growth. Input molecule: NCCNC(=O)c1cccc(COc2ccccc2NC(=O)c2cc(Br)c(Br)[nH]2)c1
96.7

###

growth listing for selected molecules.
System: SF-268 CNS
Assay Comment: NCI-60 one-dose screen, 48 h (100 = growth as untreated, 0 = no growth, -100 = all killed)
Measurement Setup: 10 µM unless noted
About 83,000 compounds went through this panel and 20% of them were active in at least one assay; those are over-represented in the sample as a whole.
Kindly provide the numeric value in % only, without the unit symbol.

Example cases with answers are listed next.
Molecule | Assay Target | Unit Tag | growth
C/C(=N\NC(=O)Nc1ccccc1)c1nnn(-c2ccc([N+](=O)[O-])cc2)c1C | SF-268 CNS | % | 103
Nc1ncc(-c2ccc3ncnc(NCc4ccccc4)c3c2)cn1 | SF-268 CNS | % | 44.8
CCc1cc2c(cc1Cl)nc1c(=O)[nH]c(=O)nc-1n2CCOCC(C)C | SF-268 CNS | % | 80
Cc1ncn(-c2ccc(/C=N/Nc3ccnc4cc(Cl)ccc34)cc2)c1C | SF-268 CNS | % | 21.5
O=C(Nc1ccccc1)Nc1nc2ccc([N+](=O)[O-])cc2[nH]1 | SF-268 CNS | % | 71.5
CN1CCN(c2ccc(Nc3nc(NCCNS(=O)(=O)c4ccc5ccccc5c4)c4sccc4n3)cc2)CC1 | SF-268 CNS | % | 63.3

Please indicate growth recorded for C#Cc1cc(C(=O)Nc2ccc(CNCCN3CCOCC3)c(C(F)(F)F)c2)ccc1C
86.3

Determine its reported growth: C#CCOc1ccc(/C=N/Nc2nc(-c3ccc(OC)cc3)cs2)cc1
87.2

Tell us which growth value is on record for CC(Nc1ncnc2ccc(-c3cnc(N)nc3)cc12)c1ccccc1 (stereo not given)
40.9

Please give the documented growth of Nc1nc(=O)n([C@H]2C[C@H](O)[C@@H](CO)O2)cc1C=O
110
